molecular target: Chymotrypsinogen A (Bos taurus); assay: Inhibitory activity against bovine Chymotrypsinogen expressed as inhibitory constant
recorded endpoint: pKi
Please report pKi as the negative decimal logarithm of the molar concentration, giving only the number.

Prompt: What is its pKi for Chymotrypsinogen A (Bos taurus)? Entry: "CCCCc1c(C)oc(=O)c(CCCC)c1O"
Completion: 2.87
